So I've got MIC readings for S. aureus DA28823 (WT), take a look.
Answers are plain numbers, in µg/mL.

O=C(N[C@H](CO)[C@H](O)c1ccc([N+](=O)[O-])cc1)C(Cl)Cl    4
CC(=O)NC[C@H]1CN(c2ccc(N3CCOCC3)c(F)c2)C(=O)O1    2
CNC(C)C1CCC(N)C(OC2C(N)CC(N)C(OC3OCC(C)(O)C(NC)C3O)C2O)O1 (stereo not drawn)    0.125
CCC[C@@H]1C[C@@H](C(=O)N[C@@H]([C@H]2O[C@H](SC)[C@H](O)[C@@H](O)[C@H]2O)[C@H](C)Cl)N(C)C1    0.094
CO[C@H]1/C=C/O[C@@]2(C)Oc3c(C)c(O)c4c(O)c(c(/C=N/N5CCN(C)CC5)c(O)c4c3C2=O)NC(=O)/C(C)=C\C=C\[C@H](C)[C@H](O)[C@@H](C)[C@@H](O)[C@@H](C)[C@H](OC(C)=O)[C@@H]1C    0.012

Kindly consider the entry below.
The recorded MIC for CN(C)c1cc(NC(=O)CNC(C)(C)C)c(O)c2c1C[C@H]1C[C@H]3[C@H](N(C)C)C(O)=C(C(N)=O)C(=O)[C@@]3(O)C(O)=C1C2=O is 0.094

----------
For each entry below, report its log10(MIC) value.
# Test system: S. aureus DA29677 (cycled with LL-37)
All values: base-10 log of MIC in µg/mL.

Use the examples below as a reference point.
CCO/N=C(\C(=O)N[C@@H]1C(=O)N2C(C(=O)[O-])=C(Sc3nc(-c4cc[n+](C)cc4)cs3)CS[C@H]12)c1nsc(N)n1    -0.72
CO[C@H]1/C=C/O[C@@]2(C)Oc3c(C)c(O)c4c(O)c(c(/C=N/N5CCN(C)CC5)c(O)c4c3C2=O)NC(=O)/C(C)=C\C=C\[C@H](C)[C@H](O)[C@@H](C)[C@@H](O)[C@@H](C)[C@H](OC(C)=O)[C@@H]1C    -2.10
CN(C)c1cc(NC(=O)CNC(C)(C)C)c(O)c2c1C[C@H]1C[C@H]3[C@H](N(C)C)C(O)=C(C(N)=O)C(=O)[C@@]3(O)C(O)=C1C2=O    -1.03

For each listed entry, give its log10(MIC).
1. CC[C@H]1OC(=O)[C@H](C)[C@@H](O[C@H]2C[C@@](C)(OC)[C@@H](O)[C@H](C)O2)[C@H](C)[C@@H](O[C@@H]2O[C@H](C)C[C@H](N(C)C)[C@H]2O)[C@](C)(O)C[C@@H](C)C(=O)[C@H](C)[C@@H](O)[C@]1(C)O
2. CCC[C@@H]1C[C@@H](C(=O)N[C@@H]([C@H]2O[C@H](SC)[C@H](O)[C@@H](O)[C@H]2O)[C@H](C)Cl)N(C)C1
3. CNC(C)C1CCC(N)C(OC2C(N)CC(N)C(OC3OCC(C)(O)C(NC)C3O)C2O)O1 (centres unmarked)
4. O=C(N[C@H](CO)[C@H](O)c1ccc([N+](=O)[O-])cc1)C(Cl)Cl
5. CC(=O)NC[C@H]1CN(c2ccc(N3CCOCC3)c(F)c2)C(=O)O1
6. CN(C)[C@@H]1C(O)=C(C(N)=O)C(=O)[C@@]2(O)C(O)=C3C(=O)c4c(O)cccc4[C@@](C)(O)[C@H]3C[C@@H]12

Result:
-0.72
-1.33
-1.03
0.78
0.18
-0.72

For each listed entry, give its log10(MIC).
1. CN[C@H](CC(C)C)C(=O)N[C@H]1C(=O)N[C@@H](CC(N)=O)C(=O)N[C@H]2C(=O)N[C@H]3C(=O)N[C@H](C(=O)N[C@H](C(=O)O)c4cc(O)cc(O)c4-c4cc3ccc4O)[C@H](O)c3ccc(c(Cl)c3)Oc3cc2cc(c3O[C@@H]2O[C@H](CO)[C@@H](O)[C@H](O)[C@H]2O[C@H]2C[C@](C)(N)[C@H](O)[C@H](C)O2)Oc2ccc(cc2Cl)[C@H]1O
2. C[C@H]1c2cccc(O)c2C(=O)C2=C(O)[C@]3(O)C(=O)C(C(N)=O)=C(O)[C@@H](N(C)C)[C@@H]3[C@@H](O)[C@@H]21

Result:
0.30
-0.90

Numbers sourced from paper PMC5161045.
